assay: soluble on expression in E. coli; label from the status in PepcDB or PDB records
measured_parameter: soluble on expression in E. coli

MGSDKIHHHHHHMQNQPPFIINSTYHREESKDIEFKSIASQHPVKKIVNHAEEYITGFLNALVEGQLYIGIDDAGKILGVKLSRSERDEIQKIIPNKLRNTDPIVSPSLYDIAFYNVLNEEQKDIEDLFVVNISVLGVDESQFYRTSSREYFLYKTTGGSTYLKTGTDCIKLNTTEIAQEIQKRKQKYLKQELDNIDDKLLQNPDNRSLLKEKANIAKLMGDIEKMDESYKRLINLNPNNSRTRVDYASAHKSIGDLEGALDILEDALKVDGDNLSILKTKGEILLGSDSSDKVKEAFQTYETALKLNPEDYTIITQIGIALRKLGKYKESIKVFNLALAKSPHYRAAKYEKRITYHKMFEGGIRI ... not soluble
MIIGYARVSSLDQNLERQLENLKTFGAEKIFTEKQSGKSIENRPILQKALNFVRMGDRFIVESIDRLGRNYNEVIHTVNYLKDKEVQLMITSLPMMNEVIGNPLLDKFMKDLIIQILAMVSEQERNESKRRQAQGIQVAKEKGVYKGRPLLYSPNAKDPQKRVIYHRVVEMLEEGQAISKIAKEVNITRQTVYRIKHDNGLSSHHHHHH ... soluble
MSEKQSNEQVEAFLNKESQWQEEYKYLRALIFNETELEEAYKWMHPCYTLNNKNVVLIHGFKNYVALLFHKGAILEDKYHTLIQQTEKVQAARQLRFENLTEIQARTEEIKYYLAEAIKAEKAGKKVEMKKTEEYVIPKELEAKFEEMPQLESSFYKLTPGRQHQYIYHIGQAKRSETKQKRVEKYINQILEGKGMHDK ... not soluble
MGSDKIHHHHHHMSAPTPLAEASQIPTIPALSPLTAKQSKGNFFSSNPISSFVVDTYKQLHSHRQSLELVNPGTVENLNKEVSRDVFLSQYFFTGLRADLNKAFSMNPAFQTSHTFSIGSQALPKYAFSALFANDNLFAQGNIDNDLSVSGRLNYGWDKKNISKVNLQISDGQPTMCQLEQDYQASDFSVNVKTLNPSFSEKGEFTGVAVASFLQSVTPQLALGLETLYSRTDGSAPGDAGVSYLTRYVSKKQDWIFSGQLQANGALIASLWRKVAQNVEAGIETTLQAGMVPITDPLMGTPIGIQPTVEGSTTIGAKYEYRQSVYRGTLDSNGKVACFLERKVLPTLSVLFCGEIDHFKNDTKIGCGLQFETAGNQELLMLQQGLDADGNPLQALPQL ... not soluble
MSPIPLPVTDTDDAWRARIAAHRADKDEFLATHDQSPIPPADRGAFDGLRYFDIDASFRVAARYQPARDPEAVELETTRGPPAEYTRAAVLGFDLGDSHHTLTAFRVEGESSLFVPFTDETTDDGRTYEHGRYMDVDPAGADGGDEVALDFNLAYNPFCAYGGSFSCALPPADNHVPAAITAGERVDADLEHHHHHH ... soluble
MKKIQRTQTRDHITQMLRYEILSGNIKAGEELAQESIAEQLGLSRMPVREALQSLEQEGFLIRLPNRHMQVAHLEADRVSHIFRVIAAMAAEMFSLIPSEVGDALLIRAQALAVAEDKSCELECHAMLISYVNNRYLEKVYQQFLDGYVSYVILHLKKDNQESAQLFAELADVIRQGRRDEIGQVMQRYFLSLAEIMRQHMKDWESAEA ... not soluble
MGMIQLQNPSHPTGLLCKANQMRLAGTLCDVVIMVDSQEFHAHRTVLACTSKMFEILFHRNSQHYTLDFLSPKTFQQILEYAYTATLQAKAEDLDDLLYAAEILEIEYLEEQCLKMLETIQ ... soluble
MSLRERNQVIPVLPPQERPRPTVVFDCEDFLVKKRFSFFNLDFLVTGRAFADLFLFHAAHIYELVHVSGSPGSFSRLLLHRIDPYGCISYKVYCKDKKTFSSEHLNRPLQRVMVVSTRENEYHKDFDGNTIKLERWSGDPEHGLLDLLNFLHSLHFMGIKDFRGTLRSYLGEGHHHHHH ... not soluble
MSLYKADMLGDAYEYLIKQFADDAGKKGGEFYTPKAVVQLVVELIDPRPGHSVYDPTCGSGGMLVESAHHVSGLPDGTLMGKPNVLLYGQEKNLGTWAIAKLNLYLHNMHASIERGDTLVEPKHLDGDYLKTFDRVIANPPFSAKSWWTPLELSNENEQENGKKVKAPNYKQVSDPYGRLVYGVPPRGYADLAFAQHMLASLKADGRMGVILPHGVLFRSGEEGKIREGLLFGTGAASGNQPGDVIEAIVGLPSALFYNTGIPACVLILNKQKPSALKDKVIIIDGSRDYLEGKAQNSLHAEDILRIVSTHKAAFEQQVEVENYCRLVTLDEIRSNDGNLNIVRYIDNGESDEVVNVAATLAHMATLAKEEAQIDQRLNRYLMELGLLETGEGHHHHHH ... not soluble
MRSLLLLALVSASAYASFDKIKDSIQNPLARGFGDDIAWVKWEDAIETALDTDKPIFLLIHKSWCHACKALKKTFQQSNAKKAFKKLSEHFVMVNTEDDDEPFEEEYRPDGKYIPRLLFLDKNGDLLQEFKNKKAEYKNYAYYYSSPADILNSMKDVLKHFGVDIPEAKRGDKLKPKKPEGKKKEL ... not soluble
MGSDKIHHHHHHMLGLPGEMQYVPGIHSPNEGPRPMTIQRKQTREVRIGKVRIGGANPVVVQSMTNTDTRDVEQTVEQIRQLQEAGCEIVRLAVLNEDAAWAIKPIRSQVSVPLVADIHFDHRLAVSALEAGVDALRINPGNIGTRAAVDRVVDAAKAHNAVIRIGVNSGSLETDLIDQYGGPTPEAMVESAFRHIRMLEDRNFGDIKVSLKSSSVSRCIEAYTLLSAKCDYPLHIGVTEAGTVLRGSIKSAVGLGVLLWQGIGDTLRVSLTSDPVAEMAVAWEILRSLGLRSRGPEIIACPTCGRCEIGLIALAEEVERRLEGETESFKVAVMGCVVNGPGEAREADLGIAGGRDKGIIFRKGEIVRTVKGGSNLLAAFMEELDTFLAHRRAERKDD ... not soluble

// data source = the DeepSol protein solubility set
